PROCEDURE SUMMARY: Distribution coefficient, logD of compound in n-Octanol/PBS at pH 7.4 incubated for 30 mins under shaking condition by UV-Vis spectroscopic analysis
Format: physicochemical
ASSAY CONTEXT: n-octanol/PBS, pH 7.4
Outcome: Yes for logD at 0.5 h of at least 3; No for anything lower.

1. O=C1CCC(N2C(=O)c3cccc(NCCOCCOCC(=O)N4CCN(C(=O)c5cc(Cc6n[nH]c(=O)c7ccccc67)ccc5F)CC4)c3C2=O)C(=O)N1 (configuration not stated) | No

For this compound, is measured logD at 0.5 h 3 or higher? COc1ccc2c(c1)c(CC(=O)N1CCN(CCOCCOCC(=O)N[C@H](C(=O)N3C[C@H](O)C[C@H]3C(=O)N[C@@H](C)c3ccc(-c4scnc4C)cc3)C(C)(C)C)CC1)c(C)n2C(=O)c1ccc(Cl)cc1
Yes

For this compound, is measured logD at 0.5 h 3 or higher? Cc1sc2c(c1C)C(c1ccc(Cl)cc1)=N[C@@H](CC(=O)NCCCN1CCN(CCCNc3cccc4c3C(=O)N(C3CCC(=O)NC3=O)C4=O)CC1)c1nnc(C)n1-2 (some centres not stated)
Yes

For this compound, is measured logD at 0.5 h 3 or higher? Cc1ncsc1-c1ccc([C@H](C)NC(=O)[C@@H]2C[C@@H](O)CN2C(=O)[C@@H](NC(=O)COCCOCCNC(=O)COc2c(-c3csc(N4CCOCC4)n3)ccc(F)c2F)C(C)(C)C)cc1
Yes

* * *

PROCEDURE SUMMARY: Distribution coefficient, logD of compound in n-Octanol/PBS at pH 7.4 incubated for 30 mins under shaking condition by UV-Vis spectroscopic analysis
Assay type: physicochemical
ASSAY CONTEXT: octanol/water, pH 7.4, 0.5 h, BLD = below limit of detection
REPORTED ENDPOINT: logD

1. Cc1ncsc1-c1ccc([C@H](C)NC(=O)[C@@H]2C[C@@H](O)CN2C(=O)[C@@H](NC(=O)CCCCn2cc(COc3c(-c4csc(N5CCOCC5)n4)ccc(F)c3F)nn2)C(C)(C)C)cc1 | Bld
2. O=C(COc1c(-c2csc(N3CCOCC3)n2)ccc(F)c1F)NCCCCCCCCCCNc1ccc2nnn(C3CCC(=O)NC3=O)c(=O)c2c1 (stereo not drawn) | Bld
3. CCOC(=O)c1c(C)n(Cc2ccccc2)c2ccc(OCCCCCCC(=O)N[C@H](C(=O)N3C[C@H](O)C[C@H]3C(=O)N[C@@H](C)c3ccc(-c4scnc4C)cc3)C(C)(C)C)cc12 | Bld

* * *

For each record, write down the corresponding solubility kinetic at 1 h.
PROCEDURE SUMMARY: Kinetic solubility of the compound in universal buffer at pH 7.4 incubated for 60 mins under shaking condition by UHPLC-MS analysis
Assay type: physicochemical
ASSAY CONTEXT: read-out: Kinetic_solubility
One number for each entry, in µM.

The cases that follow already have their solubility kinetic at 1 h on record.
1) Cc1sc2c(c1C)C(c1ccc(Cl)cc1)=N[C@@H](CC(=O)NCCCN1CCN(CCCNc3cccc4c3C(=O)N(C3CCC(=O)NC3=O)C4=O)CC1)c1nnc(C)n1-2 (stereo partly drawn) | 71
2) Cc1sc2c(c1C)C(c1ccc(Cl)cc1)=N[C@@H](CC(=O)NCCCCCCCCNc1cccc3c1C(=O)N(C1CCC(=O)NC1=O)C3=O)c1nnc(C)n1-2 (stereo partly drawn) | 0.05

For the next question, use this compound.
Any idea what solubility kinetic at 1 h was measured for Cc1ncsc1-c1ccc([C@H](C)NC(=O)[C@@H]2C[C@@H](O)CN2C(=O)[C@@H](NC(=O)CCCCNC(=O)COc2c(-c3csc(N4CCOCC4)n3)ccc(F)c2F)C(C)(C)C)cc1 ?
12
